GI50 for assorted compounds
# Tested on: A549
# assay: NCI tumour cell line growth inhibition, 48 h
Where a name gives a salt, the structure may show the parent alone. The source made the active and inactive calls. No stated cut-off is given here; in the data, active = GI50 up to about 1.1 µM and inactive = higher.

compound	target-desc	GI50
C1=C[C@]2(CCC13OCCO3)COc1ccccc12	A549	> 100 µM (inactive)
N[C@@H](Cc1ccc(N(CCCl)CCCl)cc1)C(=O)O [MELPHALAN HYDROCHLORIDE]	A549	28.7 µM (inactive)
CC(=O)NNc1nc(C)c(C(=O)NNC(=O)C(=O)Nc2c(C)cccc2C)s1	A549	42.4 µM (inactive)
O=C1NC2C3CC(OCc4ccccc4)(OCc4ccccc4)C2OC3O1 (configuration not stated)	A549	> 50 µM (inactive)
O=C1CC(O)C=C1Nc1ccc(Cl)cc1 (configuration not stated)	A549	5.81 µM (inactive)

Recall the reported GI50 of CC1=C2C(=O)[C@H]3[C@@H](CC=C4C[C@@H](O)CC[C@@]43C)[C@@H]2CC[C@]12O[C@@H]1C[C@H](C)CN[C@H]1[C@H]2C when tested on A549.
> 43 µM (inactive)

Recall the reported GI50 of CCN1CCCC(NCc2c3ccccc3c(CNC3CCCN(CC)C3)c3ccccc23)C1 (configuration not stated) when tested on A549.
> 48 µM (inactive)

Recall the reported GI50 of O=C(O)CNS(=O)(=O)c1ccc(NC(=O)CI)cc1 when tested on A549.
91.2 µM (inactive)

Recall the reported GI50 of CCOC(=O)C1C(c2ccccc2)C2(C#N)C(=N)OC1(C)C2(C#N)C#N (configuration not stated) when tested on A549.
> 100 µM (inactive)

Recall the reported GI50 of CC1=C(OC2OC(CO)C(O)C(O)C2O)C(=O)C[C@H]2C1=CC[C@@H]1[C@@]2(C)C(=O)C[C@]2(C)[C@@H]([C@@](C)(O)C(=O)CCC(C)(C)O)[C@H](O)C[C@@]12C (some centres not stated) when tested on A549.
> 100 µM (inactive)

Recall the reported GI50 of OCC(O)C1OC2CC1Nc1ccccc1N2 (configuration not stated) when tested on A549.
> 100 µM (inactive)

---

# Tested on: OVCAR-3
# assay: NCI tumour cell line growth inhibition, 48 h
Active and inactive are the calls of the source. Cut-off read from the data, not from the text of the source: active = GI50 up to about 1.1 µM and inactive = higher.
quantity: GI50

                                   compound     measured_result
0  O=S(=O)(/C=C/C=C/[S+]([O-])c1ccccc1)c1ccccc1 (stereo unspecified)  1.53 µM (inactive)

Annotate the compound CC(=O)c1c2c(cc3c1CC1(C3)Cc3cc4c(c(C(=O)O)c3C1)CCCC4)CCCC2.CC(N)c1ccccc1 (stereo unspecified) with its measured GI50.
23.6 µM (inactive)

Annotate the compound C=CC1(CC[C@]2(c3ccc(OC)c(OC)c3)C=[N+]([O-])O[C@H](O[C@@H]3CCCC[C@H]3C(C)(C)c3ccccc3)C2)OCC(C)(C)CO1 with its measured GI50.
6.59 µM (inactive)

Annotate the compound [N-]=[N+]=C(C(=O)OCC#CCOC(=O)C(=[N+]=[N-])S(=O)(=O)c1ccccc1)S(=O)(=O)c1ccccc1 with its measured GI50.
> 10 µM (inactive)

Annotate the compound CC(=O)OC1CC[C@@]2(C)C(CC[C@]3(C)C2CC=C2[C@@H]4C(C)[C@H](C)CCC4(C)CCC23C)[C@@]1(C)C(=O)O (stereo partly specified) with its measured GI50.
18.9 µM (inactive)

Annotate the compound Cc1ccc(C2=CC(=O)/C(=C\C(=O)c3ccc(Br)cc3)O2)c(C)c1 with its measured GI50.
5.3 µM (inactive)

---

# Tested on: HCT-116
# assay: NCI tumour cell line growth inhibition, 48 h
The source made the active and inactive calls. Cut-off read from the data, not from the text of the source: active = GI50 up to about 1.1 µM and inactive = higher.
GI50 for assorted compounds

                                   compound  quantity      measured_result
0                CC(=O)c1c2c(cc3c1CCC3)CCC2      GI50   70.3 µM (inactive)
1  CCC(C)(C)C1CCC2c3c([nH]c4ccccc34)C3C(=O)N(c4ccc(OC)cc4)C(=O)C3C2C1 (stereo unspecified)      GI50   9.08 µM (inactive)
2  O=C(c1cccc2ccccc12)N1CCC(C2CCN(C(=O)c3cccc4ccccc34)CC2)CC1      GI50  > 100 µM (inactive)
3     O=c1[nH]nc(Cc2ccccc2)n1/N=C/c1ccccc1O      GI50  > 100 µM (inactive)
4       O=C(Cn1c2c(c3ccccc31)CCCC2)N1CCOCC1      GI50  > 100 µM (inactive)
5                 O=C(O)CN(CC(=O)O)c1ccccc1      GI50   56.5 µM (inactive)
6                   NCCCc1ccc2oc3ccccc3c2c1      GI50   15.3 µM (inactive)
7  CC(=O)OC1CC[C@@]2(C)C(CC[C@]3(C)C2CC=C2[C@@H]4C(C)[C@H](C)CCC4(C)CCC23C)[C@@]1(C)C(=O)O (stereo partly specified)      GI50   16.4 µM (inactive)
8  Oc1c(Cl)cc2cc1-c1cc(cc(Cl)c1O)CCc1c(cc(Cl)c(O)c1Cl)-c1cc(Cl)c(c(Cl)c1O)/C=C\2      GI50   8.11 µM (inactive)
9  CS(=O)(=O)OC1CN2CCC1CC2 (stereo unspecified)      GI50  > 100 µM (inactive)

Please examine the following record next.
Annotate the compound Nc1csc(-c2scc3c2OCCO3)c1N with its measured GI50.
20 µM (inactive)

---

# Test system: SF-268
# assay: NCI tumour cell line growth inhibition, 48 h
Active and inactive are the calls of the source. Rule as the data show it: active = GI50 up to about 1.1 µM and inactive = higher.
quantity: GI50

Study these solved cases before continuing.
                                   compound      measured_result
0                NC1=C(Cl)C(=O)c2ccccc2C1=O   11.2 µM (inactive)
1  COc1cccc(N2C(Cl)C(=O)C2c2c[nH]c3ccccc23)c1 (stereo not given)  > 100 µM (inactive)
2  N#C/C(=C1\SCC(=O)N1c1ccccc1)c1nc2ccccc2[nH]1  > 100 µM (inactive)
3  CNC(=O)O/N=C1\N(C)CN(c2ccccc2)C12CCN(CCCC(=O)c1ccc(F)cc1)CC2  > 100 µM (inactive)

Please examine the following record next.
Annotate the compound CN(C(=O)C12C3C4C5C3C1(C(=O)C13C6C7C8C6C1C8C73)C5C42)C(C)(C)C (stereo not given) with its measured GI50.
> 50 µM (inactive)

---

# Test system: TK-10
# assay: NCI tumour cell line growth inhibition, 48 h
Activity calls are given as the source filed them. No stated cut-off is given here; in the data, active = GI50 up to about 1.1 µM and inactive = higher.
Choose one outcome from this list and give only that: yes = active, no = inactive

Example cases with answers are listed next.
>>> df
                                   molecule  discrete_label
0  C=C1C(=O)OC2/C=C(\CO)CC/C=C(\CO)CC(OC(=O)C(C)C)C12 (stereo unspecified)              no
1  CN(C(=O)C12C3C4C5C3C1(C(=O)C13C6C7C8C6C1C8C73)C5C42)C(C)(C)C (stereo unspecified)              no
2  COc1ccc2[nH]c(C(O)(Cc3cccnc3)Cc3cccnc3)cc2c1              no

Hey, what did the test say about CCOP(=O)(OCC)/C(=C\n1c(=S)[nH]c2cc(C)ccc21)C(=O)OC ?
no

Hey, what did the test say about COc1ncnc2c1cnn2Cc1cn(CCCCO)nn1 ?
no

Hey, what did the test say about O=[N+]([O-])c1ccc(-c2nnc(C34CC5CC(CC(C5)C3)C4)o2)cc1 ?
no

Hey, what did the test say about O=C1CC(O)C=C1Nc1ccc(Cl)cc1 (stereo unspecified) ?
no

Hey, what did the test say about Nc1ccc(-c2nc3cc(F)ccc3s2)cc1Cl ?
yes

Hey, what did the test say about O=[N+]([O-])c1cnn(C2=CNc3ccccc3N=C2)c1 ?
no

Hey, what did the test say about N#CSCc1nc2ccc(Cl)cc2c(-c2ccccc2)[n+]1[O-] ?
no

Hey, what did the test say about Cc1ccc(C)c(N2C(=O)C(=O)c3c(C)ccc(C)c32)c1 ?
no

---

# System: SW-620
# assay: NCI tumour cell line growth inhibition, 48 h
Calls of active or inactive are those of the source. Cut-off read from the data, not from the text of the source: active = GI50 up to about 1.1 µM and inactive = higher.
GI50 for assorted compounds

Study these solved cases before continuing.
                                   compound  quantity      measured_result
0  COc1ccccc1/C=C\C(=O)C1COCN1 (stereo unspecified)      GI50   4.36 µM (inactive)
1  CC1(C)C(=O)C2(OS(=O)(=O)C(F)(F)F)CCC1C2 (stereo unspecified)      GI50  > 100 µM (inactive)
2        CCCCCOCC(O)CO (stereo unspecified)      GI50  > 100 µM (inactive)
3  C=C(C)CCC1C=[N+]([O-])OC(C)(C)C1(C)C (stereo unspecified)      GI50     39 µM (inactive)
4  N#CS/C(C(Cl)=C(Cl)Cl)=C(/Cl)[N+](=O)[O-]      GI50   1.78 µM (inactive)

Recall the reported GI50 of O=c1[nH]nc(Cc2ccccc2)n1/N=C/c1ccccc1O when tested on SW-620.
> 100 µM (inactive)

Recall the reported GI50 of O=C(OCC1CC(C2(O)CCCCC2)C(=O)O1)c1ccccc1 (stereo unspecified) when tested on SW-620.
> 100 µM (inactive)

Recall the reported GI50 of CC1OC(n2cc(F)c(=O)[nH]c2=O)C(O[Si](C)(C)C(C)(C)C)C1O[Si](C)(C)C(C)(C)C (stereo unspecified) when tested on SW-620.
15 µM (inactive)

Recall the reported GI50 of CCOC(=O)c1nc2cc(C(F)(F)F)ccc2nc1Oc1ccc(C#N)cc1 when tested on SW-620.
> 100 µM (inactive)

Recall the reported GI50 of COc1ccc(Cc2n[nH]c(Nc3ccc(Br)cc3)nc2=O)cc1OC when tested on SW-620.
> 100 µM (inactive)

Recall the reported GI50 of C=C1C(=O)CC2C1CC(=O)/C(C)=C/CCC(C)(O)C2O (stereo unspecified) when tested on SW-620.
7.26 µM (inactive)
